Target: T1, human serum albumin (human, UniProt P02768 25-609)
T1 construct: also called HSA
Assay: SPR pH 7.4
pKd: −log10 of the molar value.
MEASUREMENT_KIND: pKd

{"BINDER": "T026301170 (bispecific antibody, bispecific ISVD construct; also called T0263018B11(E1D)-35GS-ALB23002-A) DVQLVESGGGVVQPGGSLRLSCAASGFTFSSYAMYWVRQAPGKGLEWVSAISSGGGSTDYADSVKGRFTISRDNSKNTLYLQMNSLRPEDTALYYCAADTLYTSLTWYSYWGQGTLVTVSSGGGGSGGGGSGGGGSGGGGSGGGGSGGGGSGGGGSEVQLVESGGGVVQPGGSLRLSCAASGFTFRSFGMSWVRQAPGKGPEWVSSISGSGSDTLYADSVKGRFTISRDNSKNTLYLQMNSLRPEDTALYYCTIGGSLSRSSQGTLVTVSSA", "OBSERVED": 7.89}
